# experimental target: SIX1-Q177R homeodomain (human, UniProt Q15475 108-198, Q177R)
# Sequence: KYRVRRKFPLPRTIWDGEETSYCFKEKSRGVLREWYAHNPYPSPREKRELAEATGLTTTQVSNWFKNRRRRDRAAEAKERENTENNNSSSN
# experimental protocol: universal protein binding microarray; Universal all-10-mer PBM (8x60K, AMADID 030236), 300 nM GST-tagged protein, Alexa Fluor 488 anti-GST; buffer, salt, pH and temperature not stated (as in Berger); high values mean tight binding
# measurement parameters: protein: ivt; tags: N-terminal GST; dsDNA, one strand shown
Over roughly 33,000 sequences, “e-score” has its median near -0.05; the highest 2% begin near 0.38. Many of the other results were omitted from the sample, so the highest values are more common in it than they were.
Reported binding signal by item:

Study these solved cases before continuing.
# monomer sequence, experimental target, observed
data = [
    ("CGGGGTTC", "SIX1-Q177R homeodomain (human, UniProt Q15475 108-198, Q177R)", "0.201 E-score"),
    ("GCGTTACA", "SIX1-Q177R homeodomain (human, UniProt Q15475 108-198, Q177R)", "0.201 E-score"),
]

# context switch: different sequence, same binding signal
Recorded binding signal of GACGATAC , please.
0.205 E-score
